biological target: recombinant human 5-lipoxygenase (Homo sapiens); assay: Human 5-Lipoxygenase Enzyme Assay; details: spectrophotometric assay, purified recombinant human 5-lipoxygenase, 20 μM arachidonic acid
Sequence (P09917 whole entry): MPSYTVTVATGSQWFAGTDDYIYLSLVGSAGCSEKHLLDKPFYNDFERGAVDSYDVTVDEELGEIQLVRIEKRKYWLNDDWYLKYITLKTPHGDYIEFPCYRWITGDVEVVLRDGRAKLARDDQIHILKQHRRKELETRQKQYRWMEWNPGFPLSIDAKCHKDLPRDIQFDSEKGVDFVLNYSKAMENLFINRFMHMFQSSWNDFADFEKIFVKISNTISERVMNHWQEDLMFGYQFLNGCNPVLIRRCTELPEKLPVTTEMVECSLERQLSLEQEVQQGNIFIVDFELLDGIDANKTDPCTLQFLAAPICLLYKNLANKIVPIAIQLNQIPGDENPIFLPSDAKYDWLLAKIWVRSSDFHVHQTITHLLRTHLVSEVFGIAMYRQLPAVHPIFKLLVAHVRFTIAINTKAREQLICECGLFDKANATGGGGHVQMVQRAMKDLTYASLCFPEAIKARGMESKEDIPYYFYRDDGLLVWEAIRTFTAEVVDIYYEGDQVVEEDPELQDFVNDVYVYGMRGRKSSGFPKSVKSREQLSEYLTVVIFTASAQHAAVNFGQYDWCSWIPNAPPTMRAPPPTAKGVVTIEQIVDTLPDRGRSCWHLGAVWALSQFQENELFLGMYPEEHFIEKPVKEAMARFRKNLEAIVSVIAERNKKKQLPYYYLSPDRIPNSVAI
pIC50: −log10 of the molar value.
criterion met means recorded pIC50 is 7 or above; criterion not met means it is below 7.

CC[C@](O)(c1cn(Cc2ccc3c(-c4ccccc4)cc(C#N)nc3c2)nn1)C(F)(F)F | criterion met
CC[C@](O)(c1cn(Cc2ccc3c(-c4ccccc4F)cc(=O)oc3c2)nn1)C(F)(F)F | criterion not met
CCC(O)(CC)c1cn(Cc2ccc3c(-c4ccc(F)cc4)cc(=O)oc3c2)nn1 | criterion not met
CC[C@](O)(c1cn(Cc2ccc3c(-c4cc(F)cc(F)c4)cc(C#N)nc3c2)nn1)C(F)(F)F | criterion met

[ask] Quick check: does CC[C@](O)(c1cn(Cc2ccc3c(-c4ccc(F)cc4)cc(=O)oc3c2)nn1)C(F)(F)F have pIC50 greater than or equal to 7?
[reply] criterion met
